# assay.details: A549 NSCLC cell proliferation inhibitors – ATP luminescence, human non-small cell lung line, primary screen (AID 371);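 further: compound exposure lasted 72 h before the ATP read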
# settings: at 10 µM, active compounds read high
Hit rate of the full screen: of about 3,300 compounds, about 280 (8.5%) were called active. Shown is part of a subset that was picked to be rich in actives.
Outcome label depends on growth inhibition relative to 20%: at/above gives rule met, below gives rule not met.

compound	label.value
CNCCCC12CCC(c3ccccc31)c1ccccc12	rule met
Nn1c(SCC(=O)Nc2ccc3c(c2)OCCO3)nnc1C(F)(F)F	rule not met
O=C(Nc1ccc2c(c1)OCO2)c1cncc(Br)c1	rule not met
Cc1ccc(OCC(=O)N2CCC(N3CCCCCC3)CC2)cc1	rule not met
COc1cc2nc(-c3ccccc3)nc(N3CCCC3)c2cc1OC	rule not met
CN1CCc2c(C#N)c(N3CCCCC3)nc(NCc3ccccc3)c2C1	rule met
COc1cc(C2CC(C(F)(F)F)n3ncc(C(=O)O)c3N2)cc(OC)c1OC (stereo not drawn)	rule not met
CC(C)CC(=O)Nc1ccccc1N1CCCC1	rule not met
Cc1nnc(N2CCOCC2)c2ccccc12	rule not met
N#CC1=C(N)N(c2ccccc2)C(c2ccccc2)C1(C#N)C#N (stereo not drawn)	rule met
CCCCNC(=O)c1c(N)n(/N=C/c2cccnc2)c2nc3ccccc3nc12	rule not met
Cc1ccc(Cn2ncc3c(N4CCN(Cc5ccc(Cl)cc5)CC4)ncnc32)cc1	rule met
Cc1ccc(Cn2ncc3c(N4CCN(c5ccc(C)cc5)CC4)ncnc32)cc1	rule met
Cc1ccc(Cn2ncc3c(N4CCOCC4)ncnc32)cc1	rule not met
CCN(CC)C(=O)CSc1nc2ccccc2c(=O)n1CC1CCCCC1	rule met
O=C1c2ccccc2C(=O)N1CCN1CCc2ccccc21	rule not met
CCOC(=O)COc1nc(N(C)C)nc(N(C)C)n1	rule not met
Clc1ccc2[nH]c3c(NCCCN4CCOCC4)ncnc3c2c1	rule met
Cn1c(=O)c2c(nc(Oc3ccc4c(c3)OCO4)n2Cc2ccc(F)cc2)n(C)c1=O	rule not met
N#Cc1nc(-c2cccs2)oc1NCc1ccc2c(c1)OCO2	rule met
COc1ccccc1-c1c(C)oc2c(CN3CCN(C)CC3)c(O)ccc2c1=O	rule not met
COCCCN1C(=O)C(O)=C(C(=O)c2ccco2)C1c1ccc(Br)cc1 (stereo not drawn)	rule not met
CC(C)(C)c1cc(-c2ccco2)c(C#N)c(SCC#N)n1	rule not met
CN(C)CCCOC(=O)C1c2ccccc2Oc2ccccc21	rule not met
O=C(O)C1CC=CCC1C(=O)N1CCN(c2nc(-c3ccccc3)c3ccccc3n2)CC1 (stereo not drawn)	rule met
COC(=O)c1sc(NC(=O)c2oc3ccccc3c2C)nc1C	rule met
CN(CCCCCC(=O)/C=N/O)Cc1ccccc1	rule not met
CC1N(O)C(c2ccc(Cl)cc2Cl)N(O)C1(C)C (stereo not drawn)	rule not met
COc1cccc(/C(O)=C2\C(=O)C(=O)N(c3ccccn3)C2c2ccccc2OC)c1 (stereo not drawn)	rule not met
COC(=O)c1ccc(Oc2nc3ccccc3n3c(C)nnc23)cc1	rule not met
Clc1ccc2[nH]c3c(NCCN4CCOCC4)ncnc3c2c1	rule met
COc1cc(C2Nc3cccc4cccc(c34)N2)cc(OC)c1OC(C)=O	rule met
COC(=O)COc1ccc(Oc2nc(SC)nc(N(C)C)n2)nn1	rule not met
c1cncc(Oc2cccc(Oc3cccnc3)c2)c1	rule met
CSC1=C(C#N)C(C)CC(=O)N1 (stereo not drawn)	rule not met
CCCCCC(=O)N1CC2(CC)CN(C(=O)CCCCC)CC(CC)(C1)C2=O	rule not met
Brc1ccc(-c2cnnc(N3CCCC3)n2)cc1	rule met
CC(O)CNc1nc2c(c(=O)n(C)c(=O)n2C)n1Cc1cccc(C(F)(F)F)c1 (stereo not drawn)	rule met
CC(=O)Nn1cnc2c(c1=O)C1(CCCC1)Cc1ccccc1-2	rule not met
Clc1ccc(-c2nn3c(-c4cccc(Cl)c4)nnc3s2)cc1	rule met

The reported numbers originate from PubChem BioAssay AID371.
